assay: Pharmacokinetics study of KPT-335 in cats (i.v. injection, p.o. capsules and tablets; UPLC-MS/MS, non-compartmental analysis); type: in vivo; conditions: both sexes, cat, plasma, po, 2 mg/kg, cats, capsule p.o. 2 mg/kg BW, 12 h, mean
MEASURED METRIC: concentration at 12 h (ng/mL)

| SAMPLE SMILES | UNIT OF MEASURE | RECORDED VALUE |
| --- | --- | --- |
| O=C(/C=C\n1cnc(-c2cc(C(F)(F)F)cc(C(F)(F)F)c2)n1)NNc1ccccn1 | ng/mL | 40.1 |

---

experiment: Pharmacokinetics study of KPT-335 in cats (i.v. injection, p.o. capsules and tablets; UPLC-MS/MS, non-compartmental analysis); type: in vivo; settings: both sexes, plasma, iv, 1 mg/kg, cats, i.v., Injection, 1 mg/kg BW; read-out: AUClast
MEASURED METRIC: AUC(0-t) (ng·h/mL)

| COMPOUND | MEASURED METRIC | RECORDED VALUE |
| --- | --- | --- |
| O=C(/C=C\n1cnc(-c2cc(C(F)(F)F)cc(C(F)(F)F)c2)n1)NNc1ccccn1 [KPT-335] | AUC(0-t) | 3170 |

---

assay: Pharmacokinetics study of KPT-335 in cats (i.v. injection, p.o. capsules and tablets; UPLC-MS/MS, non-compartmental analysis); type: in vivo; conditions: both sexes, cat, plasma, iv, 1 mg/kg, cats, i.v. 1 mg/kg BW, 0.25 h, mean

| SAMPLE SMILES | concentration at 0.25 h, ng/mL |
| --- | --- |
| O=C(/C=C\n1cnc(-c2cc(C(F)(F)F)cc(C(F)(F)F)c2)n1)NNc1ccccn1 | 767 |

---

Assay: Pharmacokinetics study of KPT-335 in cats (i.v. injection, p.o. capsules and tablets; UPLC-MS/MS, non-compartmental analysis)
Assay type: in vivo
Conditions: both sexes, cat, plasma, po, 1 mg/kg, cats, capsule p.o. 1 mg/kg BW, 4 h, mean; read-out: Plasma concentration Mean
Experimental: In this study, a parallel trial design was employed, 42 adult domestic cats (21 males and 21 females), aged 1 to 2 years and weighing 2.5 ± 0.25 kg. Cats were grouped by random number, with half male and female in each group, and all cats were determined to be systemically healthy during an initial screening visit 1 week prior to the experiment. They were acclimatized to the laboratory environment for 7 days before the study commenced. […]
MEASURED METRIC: concentration at 4 h (ng/mL)

| SAMPLE SMILES | MEASURED METRIC | RECORDED VALUE |
| --- | --- | --- |
| O=C(/C=C\n1cnc(-c2cc(C(F)(F)F)cc(C(F)(F)F)c2)n1)NNc1ccccn1 | concentration at 4 h | 153 |

---

Assay: Pharmacokinetics study of KPT-335 in cats (i.v. injection, p.o. capsules and tablets; UPLC-MS/MS, non-compartmental analysis)
Type: in vivo
Details: female, plasma, po, 1 mg/kg, female cats, p.o., Tablet, Feeding, 1 mg/kg BW; read-out: Cmax Value females
Procedure: In this study, a parallel trial design was employed, 42 adult domestic cats (21 males and 21 females), aged 1 to 2 years and weighing 2.5 ± 0.25 kg. Cats were grouped by random number, with half male and female in each group, and all cats were determined to be systemically healthy during an initial screening visit 1 week prior to the experiment. They were acclimatized to the laboratory environment for 7 days before the study commenced. […]
MEASURED METRIC: Cmax (µg/mL)

| COMPOUND | RECORDED VALUE |
| --- | --- |
| O=C(/C=C\n1cnc(-c2cc(C(F)(F)F)cc(C(F)(F)F)c2)n1)NNc1ccccn1 [KPT-335] | 0.467 |

Reference for the values: paper PMC12078333
